test: recombinant barcode read abundance after kanamycin selection (control-corrected) (log10(CPM+1)); higher = more efficient recombination; sequences stand for … in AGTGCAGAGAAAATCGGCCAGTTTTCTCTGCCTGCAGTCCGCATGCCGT…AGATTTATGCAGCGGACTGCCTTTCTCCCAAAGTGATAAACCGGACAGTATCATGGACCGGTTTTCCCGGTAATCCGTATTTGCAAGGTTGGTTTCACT; site = the 11-nt target;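 note: IS621 recombinase and bridge RNA in Escherichia coli cells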
Quick reference for recombinant barcode read abundance (log10) among some sequences
# respond with the number and nothing more

Examples from the recorded data:
CGACCTGCTTGGGTTCTAACCTGTTGCCT (site CGACCTGCTAG): 0.246
AGTGACTCTTGGGTTCTAACCTGTTGCCT (site AGTCTCTCTAG): 0.0765
CCTCAGTCTTGGGTTCTAACCTGTTGCTT (site CCTCATTCTAA): 0.122
CGCGATCCTTGGGTTCTAACCTGTTGCCT (site CGCGGTCCTAG): 0.468

The record that follows has no recombinant barcode read abundance (log10) shown yet.
Query: Return recombinant barcode read abundance (log10) for the following sequence: GCCAGCTCTTGGGTTCTAACCTGTTGCTG (site GCCAGCTCTCA)
Reply: 0.581

###

assay: recombinant barcode read abundance after kanamycin selection (control-corrected) (log10(CPM+1)); higher = more efficient recombination; sequences stand for … in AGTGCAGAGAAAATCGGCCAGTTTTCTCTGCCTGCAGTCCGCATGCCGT…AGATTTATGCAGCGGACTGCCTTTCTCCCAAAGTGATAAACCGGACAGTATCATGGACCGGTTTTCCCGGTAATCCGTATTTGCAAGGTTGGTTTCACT; site = the 11-nt target
VALUE KIND: recombinant barcode read abundance (log10)
# respond with the number and nothing more

TCGTTCGCTTGGGTTCTAACCTGTTGCCT (site TCCTTCACTAG): 0.0905
TAGACGACTTGGGTTCTAACCTGTTGCTT (site TAGGCGACTAA): 0.0736
AATATGCCTTGGGTTCTAACCTGTTGCCT (site AATCTCCCTAG): 0.0372

Query: Return recombinant barcode read abundance (log10) for the following sequence: TTGTAGACTTGGGTTCTAACCTGTTGCCT (site TTGTAGACTAG)
Reply: 1.22

Query: Return recombinant barcode read abundance (log10) for the following sequence: TCAGCATCTTGGGTTCTAACCTGTTGCCT (site TCAGCATCTAG)
Reply: 0.457

Query: Return recombinant barcode read abundance (log10) for the following sequence: ATTAGGACTTGGGTTCTAACCTGTTGCAG (site ATTAGGACTCA)
Reply: 0.579

Query: Return recombinant barcode read abundance (log10) for the following sequence: AGTTGTCCTTGGGTTCTAACCTGTTGCTT (site AGTTGTCCTAG)
Reply: 0.0387

Query: Return recombinant barcode read abundance (log10) for the following sequence: TCCCAAGCTTGGGTTCTAACCTGTTGCTA (site TCCCAAGCTTA)
Reply: 1.32

Query: Return recombinant barcode read abundance (log10) for the following sequence: TCGCACACTTGGGTTCTAACCTGTTGCCT (site GCGCACACTAG)
Reply: 0.814

Query: Return recombinant barcode read abundance (log10) for the following sequence: CGTAGCTCTTGGGTTCTAACCTGTTGCCT (site CGTAGCTCTAG)
Reply: 0.516

Query: Return recombinant barcode read abundance (log10) for the following sequence: AGTTGTCCTTGGGTTCTAACCTGTTGCAT (site AGTTGTCCTAT)
Reply: 0.219

Query: Return recombinant barcode read abundance (log10) for the following sequence: GAGTAGTCTTGGGTTCTAACCTGTTGCCT (site GAGTAGTCTAG)
Reply: 2.39

Query: Return recombinant barcode read abundance (log10) for the following sequence: ATCTAGGCTTGGGTTCTAACCTGTTGCCG (site CATAGATCTAT)
Reply: 0.099

Query: Return recombinant barcode read abundance (log10) for the following sequence: GGACTAACTTGGGTTCTAACCTGTTGCCT (site AGACTAACTAA)
Reply: 0.126

Query: Return recombinant barcode read abundance (log10) for the following sequence: GAGACGGCTTGGGTTCTAACCTGTTGCTT (site GAGCCGGCTAA)
Reply: 0.193

Query: Return recombinant barcode read abundance (log10) for the following sequence: TAGAACACTTGGGTTCTAACCTGTTGCTG (site TAGAACACTCA)
Reply: 1

src = the supplement of paper PMC11208160
